test: method code SF-AS, from DOI: 10.1021/acs.jmedchem.6b01691, PMID: 28051859
Give measured logP for each item. Keep answers brief.
Could you respond with only the numeric value?

[in] Tell me the measured logP of COc1ccc(OC(F)F)cc1 , please.
[out] 2.35

[in] // logP lookup, key: COc1ccc(C(=O)c2ccccc2)cc1
[out] 2.69

[in] Reported logP for COc1cccc(C(F)(F)F)c1 : what is it?
[out] 2.79

[in] Reported logP, compound CSc1ccc(Cl)cc1 : ____
[out] 3.01

[in] Fill in: logP of Fc1ccc(SC(F)F)cc1 is ___
[out] 2.92

[in] For the compound shown here, CSc1ccc([N+](=O)[O-])cc1 , give the reported logP.
[out] 2.64

[in] Find the recorded logP belonging to Cc1ccc(OC(F)F)cc1 and report it.
[out] 2.88

[in] Record request: logP value, item CC(=O)Nc1ccc(SC(F)F)cc1
[out] 2.42

[in] GET /values?readout=logP&item= FC(F)Oc1ccc(C(F)(F)F)cc1
[out] 2.76

[in] What does the data say about its logP? Entry: FC(F)Sc1ccc(Br)cc1
[out] 2.96

[in] Returns the measured logP for the input compound. Input: Fc1ccc(OC(F)F)cc1
[out] 2.47

[in] Could you tell me which logP is on file for FC(F)Sc1ccccc1 ?
[out] 2.89

[in] What does the record list as logP for COc1ccc(C)cc1 ?
[out] 2.56

[in] What measured logP goes with COc1ccc(SC(F)F)cc1 ?
[out] 3.11

[in] Entry COc1ccc(SC)cc1 : reported logP = ?
[out] 2.66

[in] Tell me the measured logP of Fc1cccc(OC(F)F)c1 , please.
[out] 2.59

[in] Given the compound COc1cccc(F)c1 , what is its reported logP?
[out] 2.43

[in] Fill in the blank: the reported logP of COc1ccc(C(F)(F)F)cc1 is ____.
[out] 2.87

[in] Which logP value is on record for CSc1ccc(Br)cc1 ?
[out] 2.78

[in] May I ask what logP has been recorded for COc1ccc(F)cc1 ?
[out] 2.14

[in] Entry FC(F)Oc1cccc(C(F)(F)F)c1 : reported logP = ?
[out] 2.69

[in] logP for FC(F)Sc1ccc(Cl)cc1 ?
[out] 3.24

[in] Given O=[N+]([O-])c1ccc(OC(F)F)cc1 , state its recorded logP.
[out] 1.98

[in] If you can, please state the reported logP value of Cc1ccc(SC(F)F)cc1 .
[out] 3.41

[in] What does the record list as logP for Cc1cccc(OC(F)F)c1 ?
[out] 2.87

[in] What logP value was documented for this compound, CSc1ccc(F)cc1 ?
[out] 2.77

[in] Field request: logP | item: CSc1ccccc1
[out] 2.6

[in] Value lookup for logP; key = O=[N+]([O-])c1ccc(SC(F)F)cc1
[out] 2.54

[in] Report logP for CSc1ccc(C)cc1 please.
[out] 3.01
